Data origin, for the record: patent EP0415731B1

test system: Hep G2 cells; experiment: Growth inhibition of Hep G2 cells (cell number and DNA content, 5 days); type: cell-based; conditions: Homo sapiens, HepG2, 120 h, Hep G2 cells infected with AFP/VZV TK (pCR78) retrovirus; 5 days; read-out: IC50 (50% growth inhibition)
measure-name: IC50 (µM)
Could you give me the number in µM? Just the number is fine.

Return reported IC50; argument: `COc1ncnc2c1ncn2[C@@H]1O[C@H](CO)[C@@H](O)[C@@H]1O`
175

* * *

test system: Hep G2 cells; assay: Growth inhibition of Hep G2 cells (cell number and DNA content, 5 days); type: cell-based; conditions: Homo sapiens, HepG2, 120 h, Hep G2 cells infected with N2 virus (no VZV TK); 5 days; read-out: IC50 (50% growth inhibition)
measure-name: IC50

// returns reported IC50 for input `COc1ncnc2c1ncn2[C@@H]1O[C@H](CO)[C@@H](O)[C@@H]1O`
> 2000 µM
